System: rhinovirus serotype 1B
ASSAY_METHOD_TEXT: plaque reduction (PR) test
Format: cell-based
SETTINGS: Enterovirus; Activity versus rhinovirus serotype 1B; monolayer cell culture, compound in nutrient agarose overlay; read-out: PR(ED50)
Listed next: entries and their corresponding EC50.
MEASUREMENT_NAME: EC50 (nM)

| MOLECULE | QUANTITATIVE_RESULT |
| --- | --- |
| Cc1ccc(N2CCc3ccccc3C2)cc1 | 1000 |
| c1ccc(C2COc3ccccc3C2)cc1 (centres unmarked) | 820 |
| Clc1ccc2c(c1)CN(c1ccc(Cl)c(Cl)c1)CC2 | 620 |
| Clc1ccc2c(c1)CCN(c1ccccc1)C2 | 570 |
| c1ccc(C2Cc3ccccc3CN2)cc1 (centres unmarked) [Example 26, 3-phenyl-1,2,3,4-tetrahydroisoquinoline] | 290 |
| c1ccc(C2CCc3ccccc3N2)cc1 (centres unmarked) [Example 24, 1,2,3,4-tetrahydro-2-phenylquinoline] | 330 |
| Clc1ccc(N2CCc3ccccc3C2)cc1 | 100 |
| Fc1ccc(N2CCc3ccccc3C2)cc1 | 210 |
| Clc1ccc(N2CCc3cc(Cl)ccc3C2)cc1 | 50 |
| Clc1ccc(N2CCc3ccc(Cl)cc3C2)cc1 | 130 |
| COc1ccc(N2CCc3ccccc3C2)c(OC)c1 | 8000 |
